measured-target: T1, Recombinant Human IL-1α (human, UniProt P01583 113-271)
T1 construct: Bought recombinant protein; Biotinylated in the capture ELISA; also called hIL-1α; IL-1 alpha
T1 sequence (looked up): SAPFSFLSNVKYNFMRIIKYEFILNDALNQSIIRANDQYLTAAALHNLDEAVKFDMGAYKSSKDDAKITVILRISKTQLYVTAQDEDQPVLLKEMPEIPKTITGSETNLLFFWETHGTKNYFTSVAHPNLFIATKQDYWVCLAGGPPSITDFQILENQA
assay-explanation: capture ELISA: antibody captured by anti-human Fc, biotinylated antigen titrated
test-readout: EC50 (nM)
Provide only the numeric value, understood in nM.

[Q] Recorded EC50 for 3D12.16 (antibody, human IgG1, kappa, L234A L235A, V domains shown, Parent anti-IL-1α antibody; also called 3D12.16VH; 3D12.16VL) VH: EIQLVQSGAEVKKPGASVKVSCKASGYTFTNYGMNWVRQAPGQDLERMAWINTYTGESTYADDFKGRFTFTLDTSTSTAYMELSSLRSEDTAVYFCARGIYYYGSSYAMDYWGQGTTVTVSS VL: DIQMTQSPSSLSASVGDRVTITCRASQDISNCLNWYQQKPGKTPKLLIYYTSRLHSGVPSRFSGSGSGTDYTFTISSLQPEDIATYFCQQGKTLPYAFGQGTKLEIKR , please?
[A] 0.01
